- Test Target: mGlu7 (Homo sapiens (Human), UniProt Q14831)
- Sequence (Q14831 35-915): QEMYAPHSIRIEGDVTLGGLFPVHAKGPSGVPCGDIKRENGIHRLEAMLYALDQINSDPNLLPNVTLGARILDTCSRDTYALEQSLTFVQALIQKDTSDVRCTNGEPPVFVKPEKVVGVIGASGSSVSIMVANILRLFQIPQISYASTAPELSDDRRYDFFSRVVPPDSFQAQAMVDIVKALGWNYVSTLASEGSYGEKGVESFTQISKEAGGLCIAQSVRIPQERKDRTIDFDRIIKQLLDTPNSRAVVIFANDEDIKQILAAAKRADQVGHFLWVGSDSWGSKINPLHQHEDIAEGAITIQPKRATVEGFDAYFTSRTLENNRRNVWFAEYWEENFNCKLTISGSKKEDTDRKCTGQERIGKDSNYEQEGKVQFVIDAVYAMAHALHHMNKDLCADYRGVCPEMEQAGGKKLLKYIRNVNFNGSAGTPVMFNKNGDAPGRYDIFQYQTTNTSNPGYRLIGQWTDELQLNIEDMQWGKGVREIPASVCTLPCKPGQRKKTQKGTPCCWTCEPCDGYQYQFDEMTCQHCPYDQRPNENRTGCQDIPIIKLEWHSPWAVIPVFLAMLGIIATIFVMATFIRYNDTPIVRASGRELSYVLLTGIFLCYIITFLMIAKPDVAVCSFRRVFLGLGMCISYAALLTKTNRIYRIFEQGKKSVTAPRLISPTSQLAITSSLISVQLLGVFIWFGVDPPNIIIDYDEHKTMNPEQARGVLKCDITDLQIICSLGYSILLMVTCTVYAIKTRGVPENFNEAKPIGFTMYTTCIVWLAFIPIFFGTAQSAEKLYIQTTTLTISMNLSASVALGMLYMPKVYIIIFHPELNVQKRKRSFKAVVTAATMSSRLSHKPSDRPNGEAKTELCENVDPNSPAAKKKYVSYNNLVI
- Test: Agonist activity on mGlu7 in transfected HEK293 cells, intracellular calcium release (Fluo4-AM)
- Assay type: cell-based
- Settings: transfected cells, calcium release; read-out: mGlu7 EC50 μM (n)
Answer each item with its documented EC50.

Incoming: Fill in: EC50 of N[C@@H](CCP(=O)(O)Cc1ccc(OCC(=O)O)c(C(F)(F)F)c1)C(=O)O (stereo in doubt) is ___
Outgoing: 301 µM

Incoming: Ok, now N[C@@H](CCP(=O)(O)C(O)c1cc(F)c(OCC(=O)O)c(F)c1)C(=O)O (stereo in doubt)
Outgoing: 3.87 µM

Incoming: Ok, now CCOc1cc(C(O)P(=O)(O)CC[C@H](N)C(=O)O)ccc1OCC(=O)O (stereo in doubt)
Outgoing: 60.2 µM

Incoming: Ok, now N[C@@H](CCP(=O)(O)C(O)c1cc(Cl)c(OCC(=O)O)c(Cl)c1)C(=O)O (some centres unmarked)
Outgoing: 22.9 µM

Incoming: Ok, now COc1cc(CP(=O)(O)CC[C@H](N)C(=O)O)cc(F)c1OCC(=O)O (stereo in doubt)
Outgoing: 232 µM

Incoming: Ok, now COc1cc(C(O)P(=O)(O)CC[C@H](N)C(=O)O)cc(I)c1OCC(=O)O (some centres unmarked)
Outgoing: 6.6 µM

Incoming: Ok, now COc1cc(C(O)P(=O)(O)CC[C@H](N)C(=O)O)ccc1OCC(=O)O (some centres unmarked)
Outgoing: 11.5 µM

Incoming: Ok, now N[C@@H](CCP(=O)(O)C(O)c1ccc(OCC(=O)O)c(O)c1)C(=O)O (stereo in doubt)
Outgoing: 15 µM

Incoming: Ok, now N[C@@H](CCP(=O)(O)C(O)c1ccc(SCC(=O)O)c([N+](=O)[O-])c1)C(=O)O (stereo in doubt)
Outgoing: 15.2 µM

Incoming: Ok, now COc1cc(C(O)P(=O)(O)CC[C@H](N)C(=O)O)cc(OC)c1OCC(=O)O (some centres unmarked)
Outgoing: 127 µM

Incoming: Ok, now N[C@@H](CCP(=O)(O)Cc1ccc(OCC(=O)O)cc1)C(=O)O
Outgoing: > 100 µM

Incoming: Ok, now N[C@@H](CCP(=O)(O)Cc1ccc(OCC(=O)O)c(OC(F)(F)F)c1)C(=O)O (stereo in doubt)
Outgoing: 16.2 µM

Incoming: Ok, now COc1cc(CP(=O)(O)CC[C@H](N)C(=O)O)cc(Cl)c1OCC(=O)O (stereo in doubt)
Outgoing: > 300 µM

Incoming: Ok, now N[C@@H](CCP(=O)(O)C(O)c1ccc(SCC(=O)O)cc1)C(=O)O (stereo in doubt)
Outgoing: 13 µM

Incoming: Ok, now N[C@@H](CCP(=O)(O)C(O)c1ccc(OCC(=O)O)c([N+](=O)[O-])c1)C(=O)O (stereo in doubt)
Outgoing: 11.2 µM

Incoming: Ok, now COc1cc(C(O)P(=O)(O)CC[C@H](N)C(=O)O)cc(F)c1OCC(=O)O (some centres unmarked)
Outgoing: 3.5 µM

Incoming: Ok, now Cc1cc(C(O)P(=O)(O)CC[C@H](N)C(=O)O)cc(C)c1OCC(=O)O (some centres unmarked)
Outgoing: 51.6 µM

Incoming: Ok, now COc1cc(C(O)P(=O)(O)CC[C@H](N)C(=O)O)cc([N+](=O)[O-])c1OCC(=O)O (some centres unmarked)
Outgoing: > 100 µM

Incoming: Ok, now N[C@@H](CCP(=O)(O)C(O)c1ccc(OCC(=O)O)c(C(=O)O)c1)C(=O)O (stereo in doubt)
Outgoing: 65 µM

Incoming: Ok, now N[C@@H](CCP(=O)(O)C(O)c1ccc(OCC(=O)O)c(OC(F)(F)F)c1)C(=O)O (stereo in doubt)
Outgoing: 1.97 µM

Incoming: Ok, now N[C@@H](CCP(=O)(O)C(O)c1ccc(OCC(=O)O)c(C(F)(F)F)c1)C(=O)O (stereo in doubt)
Outgoing: 35.5 µM

Incoming: Ok, now COc1cc(C(O)P(=O)(O)CC[C@H](N)C(=O)O)cc(Cl)c1OCC(=O)O (some centres unmarked)
Outgoing: 11.4 µM

Incoming: Ok, now CC(Oc1ccc(C(O)P(=O)(O)CC[C@H](N)C(=O)O)cc1)C(=O)O (stereo in doubt)
Outgoing: 103 µM

Incoming: Ok, now N[C@@H](CCP(=O)(O)C(O)c1ccc(OCC(=O)O)cc1)C(=O)O (some centres unmarked)
Outgoing: 11.6 µM

Incoming: Ok, now N[C@@H](CCP(=O)(O)C(O)c1ccc(CCC(=O)O)cc1)C(=O)O (some centres unmarked)
Outgoing: 37 µM

Incoming: Ok, now N[C@@H](CCP(=O)(O)C(O)c1ccc(OCP(=O)(O)O)cc1)C(=O)O (some centres unmarked)
Outgoing: 34 µM
